Below are IC50 values recorded for CDK2 (Human).

// solved cases for IC50 follow
Look at this molecule and give its reported IC50. Cc1[nH]nc2c1N=C(c1ccccc1Cl)c1cc(N)ccc1N2 88 nM

Look at this molecule and give its reported IC50. Cc1[nH]nc2c1N=C(c1ccccc1F)c1cc(Cl)ccc1N2 190 nM

Look at this molecule and give its reported IC50. Cc1[nH]nc2c1N=C(c1ccccc1)c1cc(Cl)ccc1N2 490 nM

Batch: IC50 for all items listed.
1. Cc1[nH]nc2c1N=C(c1ccccc1Cl)c1cc(Cl)ccc1N2
2. Cc1[nH]nc2c1N=C(c1ccccc1Cl)c1cc(NS(=O)(=O)N(C)C)ccc1N2

440 nM
46 nM

====

biological target: UniProtKB P00533
Sequence (P00533 whole entry, looked up): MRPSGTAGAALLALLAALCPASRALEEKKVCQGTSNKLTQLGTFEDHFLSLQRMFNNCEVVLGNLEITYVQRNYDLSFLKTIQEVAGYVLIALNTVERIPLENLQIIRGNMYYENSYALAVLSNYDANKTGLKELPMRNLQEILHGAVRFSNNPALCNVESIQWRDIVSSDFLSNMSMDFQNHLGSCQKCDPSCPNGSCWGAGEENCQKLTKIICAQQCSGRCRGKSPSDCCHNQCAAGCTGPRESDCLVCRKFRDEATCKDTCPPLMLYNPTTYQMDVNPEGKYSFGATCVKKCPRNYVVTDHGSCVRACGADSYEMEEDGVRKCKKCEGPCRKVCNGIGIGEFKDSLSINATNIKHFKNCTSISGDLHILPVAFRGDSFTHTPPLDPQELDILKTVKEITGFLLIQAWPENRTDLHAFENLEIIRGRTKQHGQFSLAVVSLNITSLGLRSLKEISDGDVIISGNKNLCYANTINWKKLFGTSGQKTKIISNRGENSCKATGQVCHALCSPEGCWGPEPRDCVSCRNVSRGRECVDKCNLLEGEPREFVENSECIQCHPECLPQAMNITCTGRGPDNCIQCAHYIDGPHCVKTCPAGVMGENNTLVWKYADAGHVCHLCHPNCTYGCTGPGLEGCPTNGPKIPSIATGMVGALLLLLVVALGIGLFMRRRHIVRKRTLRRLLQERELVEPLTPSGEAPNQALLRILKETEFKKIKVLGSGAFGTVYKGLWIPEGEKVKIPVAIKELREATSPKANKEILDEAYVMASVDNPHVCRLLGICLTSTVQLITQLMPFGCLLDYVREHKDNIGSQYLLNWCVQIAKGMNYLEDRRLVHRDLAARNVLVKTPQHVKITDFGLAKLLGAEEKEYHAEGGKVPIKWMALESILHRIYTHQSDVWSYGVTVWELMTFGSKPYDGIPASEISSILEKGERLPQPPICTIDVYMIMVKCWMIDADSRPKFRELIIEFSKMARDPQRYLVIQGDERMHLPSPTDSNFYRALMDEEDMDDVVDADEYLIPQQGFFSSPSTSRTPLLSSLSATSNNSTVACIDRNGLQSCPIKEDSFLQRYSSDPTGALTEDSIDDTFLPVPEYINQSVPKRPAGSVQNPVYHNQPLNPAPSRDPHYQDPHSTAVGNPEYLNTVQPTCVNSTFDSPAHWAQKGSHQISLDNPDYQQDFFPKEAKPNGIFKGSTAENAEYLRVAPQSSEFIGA
Field: IC50. Provide a value for each of the molecules that follow.
Numbers only, in nM.

Look at this molecule and give its reported IC50. Cc1[nH]nc2c1N=C(c1ccccc1Cl)c1cc(N)ccc1N2 989

Continuing:
Look at this molecule and give its reported IC50. CC(=O)Nc1ccc2c(c1)C(c1ccccc1Cl)=Nc1c(n[nH]c1C)N2 726
